The measured values listed here are drawn from patent US20220380341A1.

Test system: TZM-bl cell line
Assay type: cell-based
run_conditions: human, 1 μM
assay_readout: Percent Viability @ 1 μM (TZM-bl cells) (%)
All answers are understood in %, so give the number only.

-- ask // returns reported Percent Viability @ 1 μM (TZM-bl cells) for input Oc1c(CC2CCCCO2)c(-c2ccc(C(F)(F)F)cc2)nn1-c1nc2ccccc2[nH]1 (stereo not shown) [Compound I-122]
-- reply 75.2

-- ask Again, but for O=C1CN(Cc2nn(-c3nc4ccccc4[nH]3)c(O)c2CCc2ccc(F)cc2)CCN1c1ccccc1 [Compound I-155]
-- reply 98.2

-- ask Again, but for CC(C)(C)OC(=O)N1CCCC(Cc2nn(-c3nc4ccccc4[nH]3)c(O)c2CCc2ccc(F)cc2)C1 (stereo not shown) [Compound I-214]
-- reply 99.9

-- ask Again, but for Oc1c(CCc2ccc(F)cc2)c(CC2CCN(Cc3cccnc3)CC2)nn1-c1nc2ccccc2[nH]1 [Compound I-808]
-- reply 102.6

-- ask Again, but for Oc1c(CCc2ccc(F)cc2)c(-c2cccc(F)c2)nn1-c1nc2ccccc2[nH]1 [Compound I-110]
-- reply 88.4

-- ask Again, but for CC(C)(C)OC(=O)N1CCC(CCc2c(-c3cccc(S(C)(=O)=O)c3)nn(-c3nc4ccccc4[nH]3)c2O)CC1 [Compound I-210]
-- reply 83.7

-- ask Again, but for CCOC(=O)c1nn(-c2nc3ccccc3[nH]2)c(O)c1CCc1ccc(F)cc1 [Compound I-404]
-- reply 100.5

----------
For each of the compounds below, state its inhibition at 1 µM.
Test system: HIV-1NL4-3
assay_summary: HIV-1 infectivity assay in TZM-bl reporter cell line (LTR-luciferase, 48 h)
Format: cell-based
run_conditions: Human immunodeficiency virus 1, TZM-bl, 1 μM; TZM-bl; normalized: DMSO wild-type HIV-1 = 0%, Nef-defective HIV-1 = 100%; read-out: HIV-1 Infectivity % Inhibition norm. to Δ-Nef @ 1 μM
All answers are understood in %, so give the number only.

-- ask Return inhibition at 1 µM measured with HIV-1NL4-3 given this compound: CC(C)(C)OC(=O)N1CCC(CCc2c(-c3ccc(S(C)(=O)=O)cc3)nn(-c3nc4ccccc4[nH]3)c2O)CC1 [Compound I-201]
-- reply 53.4

-- ask Again, but for CC(C)OC(=O)N1CCC(c2nn(-c3nc4ccccc4[nH]3)c(O)c2CCC2CCOCC2)CC1 [Compound I-722]
-- reply 53.4

-- ask Again, but for Oc1c(CCc2ccc(F)cc2)c(-c2ccc(C(F)(F)F)cc2)nn1-c1cc(C(F)(F)F)n[nH]1 [Compound I-601]
-- reply 67.6

-- ask Again, but for CC(C)(O)C(=O)N1CCC(CCc2c(C3CC3)nn(-c3nc4cc(Cl)ccc4[nH]3)c2O)CC1 [Compound I-712]
-- reply 52.6

-- ask Again, but for CN(C)S(=O)(=O)N1CCC(c2nn(-c3nc4ccccc4[nH]3)c(O)c2CCc2ccc(F)cc2)CC1 [Compound I-746]
-- reply 194

-- ask Again, but for Oc1c(CCc2ccncc2)c(-c2ccc(C(F)(F)F)cc2)nn1-c1nc2ccccc2[nH]1 [Compound I-101]
-- reply 128

-- ask Again, but for CC(C)OC(=O)N1CCC(c2nn(-c3nc4cc(Cl)ccc4[nH]3)c(O)c2CCC2CCOCC2)CC1 [Compound I-701]
-- reply 106

-- ask Again, but for Oc1c(CCc2ccc(F)cc2)c(C2CC2)nn1-c1nc2cccnc2[nH]1 [Compound I-308]
-- reply 61.4

-- ask Again, but for CC(C)COC(=O)N1CCC(c2nn(-c3nc4ccccc4[nH]3)c(O)c2CCc2ccc(F)cc2)CC1 [Compound I-721]
-- reply 120

-- ask Again, but for CC(=O)N1CCC(Cc2c(-c3ccc(C(F)(F)F)cc3)nn(-c3nc4ccccc4[nH]3)c2O)CC1 [Compound I-720]
-- reply 92.2

-- ask Again, but for Oc1c(CCc2ccc(F)cc2)c(-c2ccc(C(F)(F)F)cc2)nn1-c1nc2cccnc2[nH]1 [Compound I-301]
-- reply 81.2

-- ask Again, but for Oc1c(CC2CCOCC2)c(-c2ccc(F)cc2)nn1-c1nc2ccccc2[nH]1 [Compound I-151]
-- reply 106

-- ask Again, but for Oc1c(CCc2ccc(F)cc2)c(C2CC2)nn1-c1nc2cc(Cl)ccc2[nH]1 [Compound I-170]
-- reply 67.1

-- ask Again, but for CS(=O)(=O)c1ccc(-c2nn(-c3nc4ccccc4[nH]3)c(O)c2CCc2ccc(F)cc2)cc1 [Compound I-148]
-- reply 98.1

-- ask Again, but for CC(C)(C)OC(=O)N1CCC(CCc2c(-c3cccc(S(C)(=O)=O)c3)nn(-c3nc4ccccc4[nH]3)c2O)CC1 [Compound I-210]
-- reply 95.4

----------
assayed_target: HIV-1 NefNL4-3 (Human immunodeficiency virus type 1 group M subtype B, UniProt P03406, A33V/T15A/T51N/V11I)
assay_summary: Surface plasmon resonance binding to recombinant full-length Nef (NL4-3)
run_conditions: read-out: Nef NL4-3 Binding, SPR 1:1 or 2-site fitting KD2; Table 1; 2-site fit, second component
assay_readout: pKd
Formally, pKd is defined as -log10 of the concentration c, with c in mol/L.

-- ask // returns reported pKd for input CC(=O)N1CCC(c2nn(-c3nc4ccc(Cl)cc4[nH]3)c(O)c2CCc2ccc(F)cc2)CC1 [Compound I-702]
-- reply 5.57

-- ask Again, but for CC(=O)N1CCC(c2nn(-c3nc4ccccc4[nH]3)c(O)c2CCc2ccc(F)cc2)CC1 [Compound I-741]
-- reply 4.97

-- ask Again, but for CC(C)(C)c1nn(-c2nc3ccccc3[nH]2)c(O)c1CCc1ccc(F)cc1 [Compound I-130]
-- reply 4.89

-- ask Again, but for CC(C)(C)OC(=O)N1CCC(CCc2c(-c3cccc(S(C)(=O)=O)c3)nn(-c3nc4ccccc4[nH]3)c2O)CC1 [Compound I-210]
-- reply 5.09

-- ask Again, but for CC(C)(C)OC(=O)N1CCC(c2nn(-c3nc4ccc(Cl)cc4[nH]3)c(O)c2CCc2ccc(F)cc2)CC1 [Compound I-216]
-- reply 6.08

-- ask Again, but for CC(C)COC(=O)N1CCC(c2nn(-c3nc4ccccc4[nH]3)c(O)c2CCc2ccc(F)cc2)CC1 [Compound I-721]
-- reply 5.75

-- ask Again, but for CC(C)(O)C(=O)N1CCC(CCc2c(C3CC3)nn(-c3nc4cc(Cl)ccc4[nH]3)c2O)CC1 [Compound I-712]
-- reply 4.99

----------
assayed_target: HIV-1 NefNL4-3 (Human immunodeficiency virus type 1 group M subtype B, UniProt P03406, A33V/T15A/T51N/V11I)
assay_summary: Surface plasmon resonance binding to recombinant full-length Nef (NL4-3)
run_conditions: KD, M, Table 4; SPR fit 2-step induced fit, KD = koff/kon × koff2/(koff2 + kon2)
Please note: Kd exactly at 10 nM is Not met. Only values below 10 nM get Met.

-- ask Input CS(=O)(=O)N1CCC(CCc2c(-c3ccc(C(F)(F)F)cn3)nn(-c3nc4ccccc4[nH]3)c2O)CC1 ; condition: Kd strictly below 10 nM. Does it hold?
-- reply Not met

-- ask Again, but for CC(=O)N1CCC(Cc2c(-c3ccc(C(F)(F)F)cc3)nn(-c3nc4ccccc4[nH]3)c2O)CC1
-- reply Not met

-- ask Again, but for O=C(C1CCOC1)N1CCC(c2nn(-c3nc4ccccc4[nH]3)c(O)c2CCc2ccc(F)cc2)CC1 (centres unmarked)
-- reply Met

-- ask Again, but for COC(=O)c1ccc(CCc2c(-c3ccccc3)nn(-c3nc4cc(Cl)ccc4[nH]3)c2O)cc1
-- reply Not met

-- ask Again, but for CS(=O)(=O)c1ccc(-c2nn(-c3nc4ccccc4[nH]3)c(O)c2CCc2ccc(F)cc2)cc1
-- reply Met

-- ask Again, but for CS(=O)(=O)c1ccc(-c2nn(-c3nc4cc(Cl)ccc4[nH]3)c(O)c2CCC2CCNCC2)cc1
-- reply Met

-- ask Again, but for Oc1c(CCC2CCOCC2)c(-c2ccc(F)cc2)nn1-c1nc2ccccc2[nH]1
-- reply Not met

-- ask Again, but for O=C(OCc1ccccc1)N1CCCC(c2nn(-c3nc4ccccc4[nH]3)c(O)c2CCc2ccc(F)cc2)C1 (centres unmarked)
-- reply Met

----------
assayed_target: HIV-1 NefNL4-3 (Human immunodeficiency virus type 1 group M subtype B, UniProt P03406, A33V/T15A/T51N/V11I)
assay_summary: Surface plasmon resonance binding to recombinant full-length Nef (NL4-3)
run_conditions: response units at 30 μM relative to Nef immobilized on the SPR chip
For each of the molecules below, state its RU30/RUNef (extent of binding).
All answers are understood in E- 03, so give the number only.

-- ask // returns reported RU30/RUNef (extent of binding) for input CS(=O)(=O)N1CCC(CCc2c(-c3ccc(C(F)(F)F)cn3)nn(-c3nc4cc(Br)ccc4[nH]3)c2O)CC1
-- reply 1.62

-- ask Again, but for O=C(C1CCC(O)CC1)N1CCC(c2nn(-c3nc4ccccc4[nH]3)c(O)c2CCc2ccc(F)cc2)CC1 (stereo not drawn)
-- reply 6.53

-- ask Again, but for Oc1c(CC2CCOCC2)c(-c2ccc(F)c(F)c2)nn1-c1nc2ccccc2[nH]1
-- reply 4.57
